- experimental.system: aggregated MBP-HTT(1-89)Q46-His(6×) (Exonl-Q46) protein (Q46 protein aggregates) (Homo sapiens (Human), UniProt P42858, INS38QQQQQQQQQQQQQQQQQQQQQQQQQ)
- Sequence (P42858 other isoform, or with tags, fused parts or gaps, stated change not applied): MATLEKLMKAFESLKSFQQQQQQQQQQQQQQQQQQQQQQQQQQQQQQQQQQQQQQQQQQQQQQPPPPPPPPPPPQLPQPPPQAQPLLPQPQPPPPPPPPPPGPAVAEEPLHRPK
- test: Q46 Radioligand Binding Assay
- settings: displacement of 0.3 nM [3H3-methyl]-5-((5-methoxypyridin-2-yl)methoxy)-2-(pyrazin-2-yl)benzo[d]oxazole from 1 μM Exonl-Q46 aggregates; method calls the values IC50; read-out: Q46_RBA EC50_
measured.attribute: EC50 (nM)

A = COc1ccc(COc2ccc3c(c2)CN(c2ccc(=O)n(C)c2)CC3)nc1 [Example 29.1]
B = COc1ccc(COc2ccc3c(c2)CN(C(=O)c2ccc(=O)n(CCF)c2)CC3)nc1 [Example 34.1]
C = COc1ccc(COc2ccc3c(n2)CN(C(=O)c2ccc(OC)nc2)CC3)nc1 [Example 26]
D = COc1ccc(COC(=O)N2CCc3ccccc3C2)cn1 [Example 5]
E = CC(=O)N1CCc2ccc(OCc3ccc(O)cn3)cc2C1 [Example 32]
Q: Sort the listed compounds above so the one with the largest EC50 comes first and the smallest comes last. Reply with the item labels sorted in the order that was asked for.
Result: D, E, A, C, B
(D: 1000 nM, E: 191 nM, A: 86 nM, C: 39.3 nM, B: 5.12 nM)

1 = COc1ccc(COc2ccc3c(c2)CCN(C(=O)c2ccc(OC)nn2)C3)nc1 [Example 1.2]
2 = COc1ccc(C(=O)N(C)c2ccc3c(c2)CN(C(=O)c2ccc(OC)nc2)CC3)nc1 [Example 13]
3 = COc1ccc(C(=O)N2CCc3ccc(OCc4ccc(OCF)cn4)cc3C2)cn1 [Example 37]
Q: // ranking: key=EC50, reverse=True Reply with the item labels sorted in the order that was asked for.
Result: 2, 1, 3
